Would you mind telling me the reported pKd of each entry?
Target: T1, Rb^P M695I (human, UniProt P06400 380-788, M695I)
T1 construct: also called variant 61
T1 sequence (looked up): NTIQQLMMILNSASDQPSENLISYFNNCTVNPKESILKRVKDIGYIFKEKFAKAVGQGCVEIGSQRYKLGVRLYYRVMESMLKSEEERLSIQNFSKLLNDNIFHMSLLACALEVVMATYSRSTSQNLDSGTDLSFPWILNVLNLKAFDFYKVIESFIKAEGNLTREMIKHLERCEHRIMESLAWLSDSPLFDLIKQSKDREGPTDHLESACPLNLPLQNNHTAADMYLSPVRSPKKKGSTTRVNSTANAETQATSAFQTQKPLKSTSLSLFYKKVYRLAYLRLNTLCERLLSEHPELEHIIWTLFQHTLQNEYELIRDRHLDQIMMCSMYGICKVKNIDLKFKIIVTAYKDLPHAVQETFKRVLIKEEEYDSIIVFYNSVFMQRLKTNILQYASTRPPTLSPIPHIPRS
Assay: fluorescence polarisation; 25 °C; unlabeled Rb^P titrated against 1.5 nM TMR-E2F1^TD or 7.5 nM TMR-E7^LxCxE; 25 mM Tris pH 8.0, 200 mM NaCl, 1 mM DTT, 0.1% Tween-20; 2 min incubation; quadratic fit; apparent Kd for the variants, Kd for WT
Settings: both partners purified
No end group written: not given here. TMR = tetramethyl rhodamine dye
Conceptually, pKd converts a concentration in mol/L into minus its log10.

*Q* For the binder DLYCYEQLN (also: TMR label, position not given here, source: synthetic peptide, bought: GenScript) [TMR-E7^LxCxE, LxCxE peptide of the E7 oncoprotein from HPV] , what pKd is on record?
*A* 7.96

*Q* Try the binder {TMR}-GEGIRDLFDCDFGDLTPLD (also called E2F^TD; source: synthetic peptide, bought: GenScript) [TMR-E2F1^TD, peptide of the E2F1 transactivation domain]
*A* 7.37
